# tested-system: 5-Lipoxygenase (Rattus norvegicus, UniProt P12527)
# Sequence (P12527 1-673): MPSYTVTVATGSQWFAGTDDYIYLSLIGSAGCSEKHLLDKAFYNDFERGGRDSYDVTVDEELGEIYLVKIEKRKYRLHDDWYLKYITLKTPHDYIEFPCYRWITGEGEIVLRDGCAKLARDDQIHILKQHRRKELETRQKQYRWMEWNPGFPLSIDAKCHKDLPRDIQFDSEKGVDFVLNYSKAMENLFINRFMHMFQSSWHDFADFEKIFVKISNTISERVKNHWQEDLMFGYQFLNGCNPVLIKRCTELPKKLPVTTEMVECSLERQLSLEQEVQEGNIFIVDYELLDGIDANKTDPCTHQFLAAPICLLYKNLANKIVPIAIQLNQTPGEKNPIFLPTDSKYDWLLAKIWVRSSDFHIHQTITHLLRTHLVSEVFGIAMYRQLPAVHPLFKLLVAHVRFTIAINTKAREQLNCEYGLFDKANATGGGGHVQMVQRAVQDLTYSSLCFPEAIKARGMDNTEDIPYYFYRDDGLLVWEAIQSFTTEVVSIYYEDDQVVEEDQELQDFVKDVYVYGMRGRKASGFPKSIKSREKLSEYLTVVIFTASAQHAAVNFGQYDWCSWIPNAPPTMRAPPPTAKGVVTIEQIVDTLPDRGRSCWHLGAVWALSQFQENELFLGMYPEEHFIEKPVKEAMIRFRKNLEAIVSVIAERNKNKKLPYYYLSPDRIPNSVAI
# assay-summary: ARBL: RBL-1 whole cell 5-lipoxygenase assay (inhibition of LTB4 formation)
# assay-setup: RBL-1 cells, A23187 5 μM
property-measured: IC50 (nM)
One number for each entry, in nM.

Please review the following examples before continuing.
Field request: IC50 | item: CC1=C(CC(=O)N(C)O)c2cc(F)ccc2/C1=C\c1ccc([S+](C)[O-])cc1 (stereo not shown)
1000

Requested field: IC50. Item: CC1=C(CC(=O)NO)c2cc(F)ccc2/C1=C\c1ccc([S+](C)[O-])cc1 (stereo not shown)
12900

Respectfully, I request IC50 for each entry included below.
1. COc1ccc2c(c1)c(CC(=O)N(O)C(C)C)c(C)n2C(=O)c1ccc(Cl)cc1
2. COc1ccc2c(c1)c(CC(=O)N(C)O)c(C)n2C(=O)c1ccc(Cl)cc1

900
1400

* * *

# tested-system: Cyclooxygenase (Rattus norvegicus, UniProt Q63921)
# Sequence (Q63921 27-602): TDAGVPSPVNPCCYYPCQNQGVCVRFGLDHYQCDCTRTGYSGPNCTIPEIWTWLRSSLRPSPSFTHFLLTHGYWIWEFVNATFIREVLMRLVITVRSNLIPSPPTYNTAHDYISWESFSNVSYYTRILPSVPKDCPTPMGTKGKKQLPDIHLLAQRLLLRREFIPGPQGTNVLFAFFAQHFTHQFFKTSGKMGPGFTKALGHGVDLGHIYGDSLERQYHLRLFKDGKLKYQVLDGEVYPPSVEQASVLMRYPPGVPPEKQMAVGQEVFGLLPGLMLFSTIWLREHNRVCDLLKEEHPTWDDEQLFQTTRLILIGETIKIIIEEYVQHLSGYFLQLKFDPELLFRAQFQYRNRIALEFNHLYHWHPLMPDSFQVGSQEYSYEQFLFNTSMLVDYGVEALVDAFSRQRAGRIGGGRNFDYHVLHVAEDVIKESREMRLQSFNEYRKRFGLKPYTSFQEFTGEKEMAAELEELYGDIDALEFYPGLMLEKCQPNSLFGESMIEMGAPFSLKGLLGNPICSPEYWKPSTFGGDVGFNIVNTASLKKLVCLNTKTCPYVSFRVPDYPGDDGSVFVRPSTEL
# assay-summary: ARBC: RBL-1 whole cell cyclooxygenase assay (inhibition of PGF2α formation)
# assay-setup: PGF2α formation; RBL-1 cells, A23187 5 μM
Exercise: for every item that follows, state its recorded pIC50.
One number for each entry, as −log10 of the molar value.

Can you share its pIC50? I mean this molecule: COc1ccc2c(c1)c(CC(=O)N(O)C1CCCCC1)c(C)n2C(=O)c1ccc(Cl)cc1
7.00

Continue with the next molecule.
Item under review: CONC(=O)Cc1c(C)n(C(=O)c2ccc(Cl)cc2)c2ccc(OC)cc12 . Reported pIC50?
6.70

* * *

# assay-summary: Gastric ulcerogenicity (UD)
# Type: in vivo, Male outbred Wistar rats
# assay-setup: rat, in vivo, po
What TD50 at 6 h was measured for each of the following?
Put down the number, then write its unit next to it.

State the recorded TD50 at 6 h for this entry: COc1ccc2c(c1)c(CC(=O)NO)c(C)n2C(=O)c1ccc(Cl)cc1 [Oxametacin, reference compound]
103 mg/kg

***
What value of TD50 at 6 h has been reported for the following molecule? CONC(=O)Cc1c(C)n(C(=O)c2ccc(Cl)cc2)c2ccc(OC)cc12 [Example 4]
42 mg/kg

* * *

# System: Carrageenan-induced rat foot paw edema
# assay-summary: Carrageenan-induced rat foot paw edema (CFE-2) assay
# Assay type: in vivo
# assay-setup: 10 mg/kg PO, 1 h before carrageenan, edema at 5 h, read-out: CFE % Inhibition @ Dose
I'd be grateful if you could share measured inhibition in vivo at 10 mg/kg for these entries.
Give bare numbers, in %.

# example entries with known answers
Query (compound): COc1ccc2c(c1)c(CC(=O)N(C)O)c(C)n2C(=O)c1ccc(Cl)cc1 ; field requested: inhibition in vivo at 10 mg/kg
29

Entry COc1ccc2c(c1)c(CC(=O)N(O)C(C)C)c(C)n2C(=O)c1ccc(Cl)cc1 : reported inhibition in vivo at 10 mg/kg = ?
27

May I ask what inhibition in vivo at 10 mg/kg has been recorded for COc1ccc2c(c1)c(CC(=O)N(O)C1CCCCC1)c(C)n2C(=O)c1ccc(Cl)cc1 ?
22

Consider the additional compound presented here.
Data request, read-out inhibition in vivo at 10 mg/kg, for CONC(=O)Cc1c(C)n(C(=O)c2ccc(Cl)cc2)c2ccc(OC)cc12
40

* * *

# tested-system: 5-Lipoxygenase (Rattus norvegicus, UniProt P12527)
# assay-summary: ARBL: RBL-1 whole cell 5-lipoxygenase assay (inhibition of LTB4 formation)
# assay-setup: RBL-1 cells, A23187 5 μM
# Experimental: ARBL/ARBC Whole Cell 5-Lipoxygenase and Cyclooxygenase Assays The rat basophilic leukemia cell line (RBL-1) was obtained from the American Type Culture Collection (Rockville, Md.). […] RBL-1 cells are grown in suspension culture in Eagle's minimum essential medium supplemented with 12% fetal bovine serum at 37° C. in an incubator supplied with air-5% carbon dioxide. […] Aliquots (100 μl) are analyzed for LTB4 and PGF2α using radioimmuno assay kits as provided by the supplier.
property-measured: IC50 (µM)
One number for each entry, in µM.

Example entries and their recorded answers appear below.
What value of measured IC50 is listed for CONC(=O)Cc1c(C)n(C(=O)c2ccc(Cl)cc2)c2ccc(OC)cc12 [Example 4] ?
24

# lookup: IC50 of CONC(=O)CC1=C(C)/C(=C/c2ccc([S+](C)[O-])cc2)c2ccc(F)cc21 (centres unmarked) [Example 2]
26.4

Looking for the measured IC50 of COc1ccc2c(c1)c(CC(=O)NO)c(C)n2C(=O)c1ccc(Cl)cc1 [Oxametacin, reference compound] , can you help?
7.5

Query compound follows.
Requested field: IC50. Item: COc1ccc2c(c1)c(CC(=O)N(O)C1CCCCC1)c(C)n2C(=O)c1ccc(Cl)cc1 [Example 6]
1.6
